# measurementProtocol: Non-human primate CSF pharmacokinetics (Study A)
# Assay type: in vivo, Cynomolgus monkeys
# conditions: female, cynomolgus monkey; NHP CSF (cisterna magna)/unbound plasma, PO 0.3 mg/kg, sodium salt
measurementLabel: Kp uu at 3 h

query: Returns the measured Kp uu at 3 h for the input molecule. Input: Oc1nc(-c2cn3ccnc3c(Cc3cc(F)ccc3F)n2)ncc1F [Compound I-20]
result: ≤ 1

###

# measurementProtocol: Rat cerebrospinal fluid (CSF) pharmacokinetics
# Assay type: in vivo
# conditions: male, Sprague-Dawley; rat CSF/unbound plasma, PO 3 mg/kg
measurementLabel: Kp uu at 1 h

// solved cases for Kp uu at 1 h follow
{"columns": ["querySmiles", "Kp uu at 1 h"],
 "data": [
  ["Cc1cc(F)c(Cc2nc(-c3ncc(F)c(O)n3)cn3c(F)cnc23)cc1F", "1 to 2"],
  ["Oc1nc(-c2cn3ccnc3c(Cc3cc(F)ccc3F)n2)ncc1F", "2 to 3"],
  ["Oc1nc(-c2cn3ccnc3c(Cc3cccc(F)c3)n2)ncc1F", "≤ 1"]
]}

query: Returns the measured Kp uu at 1 h for the input molecule. Input: `Oc1nc(-c2cn3ccnc3c(Cc3cc(F)ccc3F)n2)ncc1Cl`
result: > 3

query: Then `Oc1nc(-c2cn3ccnc3c(Cc3cccc(F)c3F)n2)ncc1F` ?
result: ≤ 1

query: Then `Cc1cc(F)c(Cc2nc(-c3ncc(F)c(O)n3)cn3ccnc23)cc1F` ?
result: > 3

query: Then `Oc1nc(-c2cn3c(F)cnc3c(Cc3cc(F)ccc3F)n2)ncc1F` ?
result: 2 to 3

###

// values below are reported Kp uu at 4 h
# measurementProtocol: Rat cerebrospinal fluid (CSF) pharmacokinetics
# Format: in vivo
# conditions: male, Sprague-Dawley; rat CSF/unbound plasma, PO 10 mg/kg

{"columns": ["querySmiles", "val"],
 "data": [
  ["Cc1cc(F)c(Cc2nc(-c3ncc(F)c(O)n3)cn3ccnc23)cc1F", "2 to 3"]
]}

query: Returns the measured Kp uu at 4 h for the input compound. Input: `Oc1nc(-c2cn3ccnc3c(Cc3cc(F)ccc3F)n2)ncc1F`
result: 2 to 3

###

# Test system: sGC enzyme
# measurementProtocol: cGMP GloSensor cell-based assay, 384-well format (HEK293)
# Set-up: species or system human
# conditions: HEK293 GloSensor 40F cGMP cells, 10 μM DETA-NONOate, geometrical mean; read-out: Glo EC50
measurementLabel: EC50

// solved cases for EC50 follow
{"columns": ["querySmiles", "systemUnderTest", "EC50"],
 "data": [
  ["Cc1ccc(Cc2nc(-c3ncc(F)c(O)n3)cn3ccnc23)cc1F", "sGC enzyme", "≤ 100 nM"],
  ["Cc1cc(F)c(Cc2nc(-c3nccc(O)n3)cn3ccnc23)cc1F", "sGC enzyme", "100 to 1000 nM"],
  ["Oc1nc(-c2cn3ncnc3c(Cc3cccc(F)c3F)n2)ncc1F", "sGC enzyme", "100 to 1000 nM"],
  ["Oc1nc(-c2cn3ncnc3c(Cc3cccc(F)c3)n2)ncc1F", "sGC enzyme", "100 to 1000 nM"],
  ["Oc1nc(-c2cn3ncnc3c(Cc3ccccc3F)n2)ncc1F", "sGC enzyme", "100 to 1000 nM"],
  ["Oc1nc(-c2cn3ccnc3c(Cc3ccccc3)n2)ncc1F", "sGC enzyme", "100 to 1000 nM"]
]}

query: Report EC50 for `Cc1c(F)cc(Cc2nc(-c3ncc(F)c(O)n3)cn3ccnc23)cc1F` tested on sGC enzyme.
result: ≤ 100 nM

query: Then `Cc1cc(F)c(Cc2nc(-c3ncc(F)c(O)n3)cn3ccnc23)cc1F` ?
result: ≤ 100 nM

query: Then `Cc1cc(F)c(Cc2nc(-c3ncc(Cl)c(O)n3)cn3ccnc23)cc1F` ?
result: ≤ 100 nM

query: Then `Oc1nc(-c2cn3c(F)cnc3c(Cc3ccccc3F)n2)ncc1F` ?
result: 100 to 1000 nM

query: Then `Oc1nc(-c2cn3ncnc3c(Cc3cc(F)cc(F)c3)n2)ncc1F` ?
result: 100 to 1000 nM

query: Then `Oc1nc(-c2cn3ccnc3c(Cc3cc(F)ccc3F)n2)ncc1F` ?
result: ≤ 100 nM

query: Then `Oc1nc(-c2cn3ncnc3c(Cc3cc(F)ccc3F)n2)ncc1F` ?
result: 100 to 1000 nM

###

// values below are reported pEC50
# systemUnderTest: human α2β1 sGC isozyme (Homo sapiens, UniProt P33402+Q02153)
# Sequence (P33402 whole entry): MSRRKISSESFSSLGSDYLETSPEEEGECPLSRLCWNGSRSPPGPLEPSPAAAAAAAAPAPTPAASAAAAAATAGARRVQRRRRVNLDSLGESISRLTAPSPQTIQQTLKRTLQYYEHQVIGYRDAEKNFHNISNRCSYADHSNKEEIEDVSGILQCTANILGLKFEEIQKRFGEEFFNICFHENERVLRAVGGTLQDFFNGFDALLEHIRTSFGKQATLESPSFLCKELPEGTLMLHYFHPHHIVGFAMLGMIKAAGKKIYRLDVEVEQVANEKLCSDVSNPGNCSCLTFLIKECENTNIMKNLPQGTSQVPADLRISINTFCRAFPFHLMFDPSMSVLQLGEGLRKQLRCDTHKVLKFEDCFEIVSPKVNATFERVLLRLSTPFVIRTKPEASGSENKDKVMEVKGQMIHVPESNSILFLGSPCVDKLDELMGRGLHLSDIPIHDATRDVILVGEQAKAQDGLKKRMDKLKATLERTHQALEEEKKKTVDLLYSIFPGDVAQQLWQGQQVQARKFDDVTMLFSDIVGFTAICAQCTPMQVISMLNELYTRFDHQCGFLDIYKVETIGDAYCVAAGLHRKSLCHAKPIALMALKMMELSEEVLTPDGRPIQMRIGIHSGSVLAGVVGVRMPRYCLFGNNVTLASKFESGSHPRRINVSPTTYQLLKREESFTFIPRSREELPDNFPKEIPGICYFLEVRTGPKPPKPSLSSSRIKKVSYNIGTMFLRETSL
# Sequence (Q02153 whole entry): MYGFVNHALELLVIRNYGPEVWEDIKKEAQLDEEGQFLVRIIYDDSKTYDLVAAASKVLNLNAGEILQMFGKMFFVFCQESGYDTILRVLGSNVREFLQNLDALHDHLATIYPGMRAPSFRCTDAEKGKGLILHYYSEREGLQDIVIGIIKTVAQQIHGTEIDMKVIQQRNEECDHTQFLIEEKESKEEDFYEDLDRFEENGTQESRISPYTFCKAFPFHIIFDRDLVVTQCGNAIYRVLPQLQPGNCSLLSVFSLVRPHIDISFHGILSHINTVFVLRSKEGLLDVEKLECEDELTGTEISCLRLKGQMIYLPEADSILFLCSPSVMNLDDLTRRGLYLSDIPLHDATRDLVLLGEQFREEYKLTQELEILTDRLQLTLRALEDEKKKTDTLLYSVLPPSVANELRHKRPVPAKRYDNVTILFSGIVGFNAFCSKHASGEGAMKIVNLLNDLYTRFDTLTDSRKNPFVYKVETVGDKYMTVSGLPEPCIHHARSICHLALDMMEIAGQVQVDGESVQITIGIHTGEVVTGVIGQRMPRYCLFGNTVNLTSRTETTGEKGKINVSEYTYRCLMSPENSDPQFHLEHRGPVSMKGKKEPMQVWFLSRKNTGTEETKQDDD
# measurementProtocol: cGMP assay in CHO-K1 cells stably expressing human α2β1 sGC isozyme
# conditions: 10 μM DETA-NONOate
pEC50: −log10 of the molar value.

// solved cases for pEC50 follow
{"columns": ["querySmiles", "val"],
 "data": [
  ["Oc1nc(-c2cn3ccnc3c(Cc3cccc(F)c3F)n2)ncc1F", "≥ 7.00"],
  ["Oc1nc(-c2cn3ccnc3c(Cc3ccccc3)n2)ncc1F", "6.00 to 7.00"]
]}

Read the next record carefully.
query: Returns the measured pEC50 for the input compound. Input: `Oc1nc(-c2cn3ccnc3c(Cc3cc(F)ccc3F)n2)ncc1Cl`
result: ≥ 7.00
